Target: human P2X3 receptor (homomeric P2X3 channels) (Homo sapiens)
Construct: expressed in transfected cells; host or cells: HEK293 human embryonic kidney cells (HEK-hP2X3)
Sequence (P56373 1-397): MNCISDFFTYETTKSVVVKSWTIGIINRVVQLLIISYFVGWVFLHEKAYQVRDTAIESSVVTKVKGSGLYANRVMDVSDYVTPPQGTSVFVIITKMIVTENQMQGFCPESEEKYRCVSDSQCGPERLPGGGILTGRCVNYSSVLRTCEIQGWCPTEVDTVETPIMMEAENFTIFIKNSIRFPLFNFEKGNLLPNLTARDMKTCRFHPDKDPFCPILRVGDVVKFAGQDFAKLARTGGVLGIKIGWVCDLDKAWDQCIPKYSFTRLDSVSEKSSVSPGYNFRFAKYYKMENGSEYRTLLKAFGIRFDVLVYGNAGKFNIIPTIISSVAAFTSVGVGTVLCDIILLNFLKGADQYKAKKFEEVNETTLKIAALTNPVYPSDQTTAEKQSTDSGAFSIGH
Test: FlexStation calcium fluorescence assay, homomeric P2X3 channels (HEK-hP2X3 cells)
Type: cell-based
Details: potency ratio P2X3 over P2X2/3 from pIC50s
measured quantity: Selectivity P2X3/P2X2/3

Solved cases below.
1. C#Cc1cc(Sc2cnc(N)nc2N)c(C(C)C)cc1OC = 97
2. COc1ccc(Oc2cnc(N)nc2N)c(C(C)C)n1 = >7.1
3. COc1cc(C(C)C)c(Nc2cnc(N)nc2N)cc1C(F)(F)F = >123
4. CCc1cc(OC)c(S(C)(=O)=O)cc1Sc1cnc(N)nc1N = >3

IN: What does the data say about its Selectivity P2X3/P2X2/3? Entry: `COc1nc(C(C)C)c(Oc2cnc(N)nc2N)cc1SC(F)(F)F`
OUT: 2.1

IN: How about this molecule: `COc1nc(C(C)C)c(Sc2cnc(N)nc2N)cc1Br`
OUT: 4

IN: Would you mind doing `COc1nc(C(C)C)c(Sc2cnc(N)nc2N)cc1Cl` as well?
OUT: >48

IN: And what about the molecule `COc1cc(C(C)C)c(Sc2cnc(N)nc2N)cc1S(C)(=O)=O` ?
OUT: >18

IN: Same lookup for `COc1nc(C(C)C)c(Sc2cnc(N)nc2N)cc1C#N` , please.
OUT: >1

IN: Entry `COc1ccc(Sc2cnc(N)nc2N)c(C(C)C)n1` please
OUT: >3
